Cited source for all entries: ChEMBL document CHEMBL1146933

- Tested on: MDA-MB-435
- run description: Antiproliferative activity against MDA-MB-435 cells at 50 uM by MTT assay
- Type: functional, cell-based
- experimental parameters: Homo sapiens
The source made the active and inactive calls. The rule behind the calls is not given here.
quantity name: Activity

Solved entries:
| sample smiles | quantity name | reported measurement |
| --- | --- | --- |
| O=C(CSc1nc(O)cc(-c2ccccc2)n1)N1c2ccccc2CCc2ccccc21 | Activity | Active |
| Oc1[nH]c2ccc(I)cc2c1/N=N/c1cccc2cccnc12 | Activity | Active |
| Nc1[nH]nc2nc(-c3ccco3)c3c(c12)CCCC3 | Activity | Active |
| Cc1cccc(-n2ncc3c(NCc4ccc5c(c4)OCO5)ncnc32)c1 | Activity | Active |
| C=CCOc1ccc2c(c1)C(=NO)c1cc(OCC=C)ccc1-2 | Activity | Active |

Proceed to the following item.
What Activity appears in the records for this compound with MDA-MB-435? O=NC1=C(NNc2ccccc2)C(=O)c2ccccc21
Active
